# Tested on: SK-MEL-28 melanoma
# assay_info: NCI-60 one-dose screen, 48 h (100 = growth as untreated, 0 = no growth, -100 = all killed)
# measurement_setup: 10 µM
Compounds without any hit were thinned out: in the full panel of roughly 83,000, 20% have a hit.
Parameter growth: see the listing below.
Reply numerically in %, unit not repeated.

Recorded growth (compound CN(C)CCOc1ccccc1NC1=C(Cl)C(=O)C(Nc2ccccc2OCCN(C)C)=C(Cl)C1=O ): 109

Recorded growth (compound Cc1cc(=O)n2nnc3cc(C(F)(F)F)ccc3n12 ): 118

Recorded growth (compound CCOC(=O)C(C)(c1ccccc1)c1ccccc1 ): 111

Recorded growth (compound O=C(CCCNC(=O)c1nc(-c2ccccc2)n(-c2ccccc2)n1)NO ): 109

Recorded growth (compound CCOS(=O)(=O)c1c(C(C)C)cc(C(C)C)cc1C(C)C ): 96.5

Recorded growth (compound Cc1ccc(-c2c3c(N)nc(-c4cccnc4)nc3nc3c2c(C)nn3-c2ccccc2)cc1 ): 68.2

---

# Test system: MDA-MB-231 breast
# assay_info: NCI-60 one-dose screen, 48 h (100 = growth as untreated, 0 = no growth, -100 = all killed)
# measurement_setup: 10 µM
About 83,000 compounds went through this panel and 20% of them were active in at least one assay; those are over-represented in the sample as a whole.
Parameter growth: see the listing below.
Reply numerically in %, unit not repeated.

Some compounds with known growth results, for comparison:
Recorded growth (compound CCN(CC)CCOc1cccc2c1C(=O)c1cccc(OCCN(CC)CC)c1C2=O ): 42.4

Recorded growth (compound Cc1c(O)c(=O)ccn1C1CCC(CC2CCC(n3ccc(=O)c(O)c3C)CC2)CC1 (centres undefined) ): 43.4

Recorded growth (compound Clc1ccc(/C=C2\CCCC3C2=Nc2ccccc2NC3c2ccc(Cl)cc2)cc1 (centres undefined) ): 97.6

Recorded growth (compound O=C(Nc1ccccc1)Nc1ncnc2c1ncn2-c1ccccc1 ): 68.3

Recorded growth (compound Cc1c2cnccc2c(C)c2c1c1cc(O)ccc1n2C(C)C ): 9.51

Recorded growth (compound O=C(CSc1nnc(-c2ccc(Cl)cc2)o1)Nc1ccc(C(=O)/C=C/c2ccc(Cl)cc2)cc1 ): 104

Recorded growth (compound CCCCC(CC)CN=C(N)NC(N)=NCCCCCCN=C(N)NC(N)=NCC(CC)CCCC (centres undefined) ): -84.6

Recorded growth (compound CC(=O)Oc1cc(OC(C)=O)c2ccccc2c1OC(C)=O ): 67.7

Recorded growth (compound O=[N+]([O-])c1cccc(/C=N/NC(=S)NC23CC4CC(CC(C4)C2)C3)c1 ): 70.2

Recorded growth (compound c1cnc2[nH]cc(-c3nc(-c4ccsc4)cs3)c2c1 ): 85.6

Next:
Recorded growth (compound NS(=O)(=O)Oc1ccc2c(ccn2C(=O)C23CC4CC(CC(C4)C2)C3)c1 ): 102

Recorded growth (compound COc1ccc(N=Nc2cc(OC)c(OC)c(OC)c2)cc1 ): 89.4

Recorded growth (compound COc1cc(/C=C/c2cc(/C=C/c3ccc(O)c(OC)c3)n(C(=O)Nc3ccccc3Cl)n2)ccc1O ): 17.7

Recorded growth (compound CN1CCN(CCC(=O)Nc2cccc(-n3cc(-c4ccncc4)c(-c4ccc(Cl)c(O)c4)n3)c2)CC1 ): -72

---

# System: ACHN renal
# assay_info: NCI-60 one-dose screen, 48 h (100 = growth as untreated, 0 = no growth, -100 = all killed)
# measurement_setup: 10 µM
This is part of a sample that, as a whole, favours compounds with a hit. Of some 83,000 tested, about 20% had one in any assay. The source made the active and inactive calls. How the source made its calls: active means growth percent below 10; inactive means the rest.
result_type: growth

Some compounds with known growth results, for comparison:
Recorded growth (compound COc1ccc(-c2cc(-c3ccc(Cl)cc3)nc(SCCCC(=O)NO)n2)cc1 ): 2.98% (active)

Recorded growth (compound COc1cc2ncnc(NC3CCC(O)CC3)c2cc1OC (stereo not given) ): 94.9% (inactive)

Recorded growth (compound CN(C)CCOc1cccc(-c2nc3sccn3c2-c2ccnc(S(C)(=O)=O)n2)c1 ): 92.2% (inactive)

Recorded growth (compound COc1ccc(-c2nnc(SCC(=O)Nc3ccc(C(=O)/C=C/c4ccccc4)cc3)n2-c2ccccc2)cc1OC ): 98.9% (inactive)

Query compound follows.
Recorded growth (compound Cc1ccc(/C=C/C(=O)C(=O)/C=C/c2ccc(C)cc2)cc1 ): 104% (inactive)
